# testedSystem: monomeric streptavidin variant mSA2
# measurementProtocol: calculated from [P]T of the mSA2 binding curve fit and film thickness
property: Calculated Ratio (film thickness x [P]T relative to the 1xSP25k thin film)

[[record]]
binder = "1xSP25k thin film (1x rcSso7d.SA-PNIPAM conjugate, 25 kDa PNIPAM) (designed binder, maleimide end-functionalized PNIPAM (25 kDa) on the N-terminal Cys; film lightly crosslinked with glutaraldehyde) MGSIHHHHHHSSGLVPRGSHMCATVKFTYQGEEKQVDISKIKIVARDGQYIDFKYDEGGGAYGYGWVSEKDAPKELLQMLEKQ"
val = 1

[[record]]
binder = "4xSP25k thin film (4x rcSso7d.SA-PNIPAM conjugate, 25 kDa PNIPAM) (designed binder, maleimide end-functionalized PNIPAM (25 kDa) on the N-terminal Cys; film lightly crosslinked with glutaraldehyde, Four rcSso7d.SA repeats joined by (G4S)2 linkers in one chain) MGSSHHHHHHSSGLVPRGSHMCATVKFTYQGEEKQVDISKIKIVARDGQYIDFKYDEGGGAYGYGWVSEKDAPKELLQMLEKQGGGGSGGGGSMATVKFTYQGEEKQVDISKIKIVARDGQYIDFKYDEGGGAYGYGWVSEKDAPKELLQMLEKQGGGGSGGGGSMATVKFTYQGEEKQVDISKIKIVARDGQYIDFKYDEGGGAYGYGWVSEKDAPKELLQMLEKQGGGGSGGGGSMATVKFTYQGEEKQVDISKIKIVARDGQYIDFKYDESGGAYGYGWVSEKDAPKELLQMLEKQ"
val = 1.31

[[record]]
binder = "2xSP25k thin film (2x rcSso7d.SA-PNIPAM conjugate, 25 kDa PNIPAM) (designed binder, maleimide end-functionalized PNIPAM (25 kDa) on the N-terminal Cys; film lightly crosslinked with glutaraldehyde, Two rcSso7d.SA repeats joined by a (G4S)2 linker in one chain) MGSSHHHHHHSSGLVPRGSHMCATVKFTYQGEEKQVDISKIKIVARDGQYIDFKYDEGGGAYGYGWVSEKDAPKELLQMLEKQGGGGSGGGGSMATVKFTYQGEEKQVDISKIKIVARDGQYIDFKYDEGGGAYGYGWVSEKDAPKELLQMLEKQGG"
val = 0.9

[[record]]
binder = "3xSP25k thin film (3x rcSso7d.SA-PNIPAM conjugate, PNIPAM Mn 24.9 kDa) (designed binder, maleimide end-functionalized PNIPAM (Mn 24.9 kDa) on the N-terminal Cys; film lightly crosslinked with glutaraldehyde, Three rcSso7d.SA repeats joined by (G4S)2 linkers in one chain; also called conjugate of the trimer) MGSSHHHHHHSSGLVPRGSHMCATVKFTYQGEEKQVDISKIKIVARDGQYIDFKYDEGGGAYGYGWVSEKDAPKELLQMLEKQGGGGSGGGGSMATVKFTYQGEEKQVDISKIKIVARDGQYIDFKYDEGGGAYGYGWVSEKDAPKELLQMLEKQGGGGSGGGGSMATVKFTYQGEEKQVDISKIKIVARDGQYIDFKYDEGGGAYGYGWVSEKDAPKELLQMLEKQGG"
val = 1.24

